# System: S2, H2 or SC cells
# test-method-notes: Secondary assays: multiplexed cell viability (CellTiter-Fluor)
# condition-parameters: minimum viability, multiplexed CellTiter-Fluor, over 12 doses; summary data
test-readout: min viability (%)
Write the number in % without appending the unit.

query: Identify the measured min viability (%) of C[C@@H]1CCC/C=C\[C@H]2C[C@H](O)C[C@@H]2[C@H](O)/C=C\C(=O)O1 [NCGC00017254-02, (+)-Brefeldin A] for S2, H2 or SC cells.
result: 72.9816

query: For the record `Cc1cnc(NC(=O)CN2CCN(c3ccccn3)CC2)s1` , what value of min viability (%) is listed for S2, H2 or SC cells?
result: 76.8459

query: min viability (%) of `C[C@@H](Oc1ccc2[nH]nc(C=Cc3cnn(CCO)c3)c2c1)c1c(Cl)cncc1Cl` on S2, H2 or SC cells?
result: 66.1226

query: So what min viability (%) did `Clc1ccc(C[n+]2cc(-c3ccccc3)n3c2CCCCC3)c(Cl)c1.[Br-]` get with S2, H2 or SC cells?
result: 84.5162

query: Field: min viability (%) (S2, H2 or SC cells). Entry: `CN(c1ncccc1CNc1nc(Nc2ccc3c(c2)CC(=O)N3)ncc1C(F)(F)F)S(C)(=O)=O`
result: 64.5946

query: Lab note: need min viability (%) for `C[C@@]12OC(=O)[C@]1([C@@H](O)[C@@H]1C=CCCC1)NC(=O)[C@H]2CCCl` on S2, H2 or SC cells, anyone have it?
result: 75.9573
